The values you see were collected from paper PMC12352620.

target: THRα (Homo sapiens); assay: Gal4-hybrid reporter gene assay THRα; conditions: HEK293T, Gal4-hybrid reporter; Inactive = tested 1–300 μM; mean ± S.E.M., n ≥ 3
Sequence (P10827 128-410 isoform P10827-2 limits assumed): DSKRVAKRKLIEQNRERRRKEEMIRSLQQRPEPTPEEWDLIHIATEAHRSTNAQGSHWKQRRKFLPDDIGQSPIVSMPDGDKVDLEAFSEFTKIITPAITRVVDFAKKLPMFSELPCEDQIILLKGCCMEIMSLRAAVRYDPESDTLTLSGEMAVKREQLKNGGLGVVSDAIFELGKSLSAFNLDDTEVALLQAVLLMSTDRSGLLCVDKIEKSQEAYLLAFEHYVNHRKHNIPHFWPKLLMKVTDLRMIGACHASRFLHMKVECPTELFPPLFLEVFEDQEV
pEC50: −log10 of the molar value.
measurement-label: pEC50

O=C(O)c1coc(-c2cccc(Cl)c2)c1 [3.2]    4.59
CSc1nccn1-c1ccc(C(=O)O)cc1 [compound 30]    3.73
O=C(O)c1ccc(Oc2ccccc2)cc1 [compound 44]    3.98

P. Cc1ccccc1C(=O)/C=C/C(=O)O [4.2, (E)-4-Oxo-4-(o-tolyl)but-2-enoic acid]
Q. CCOc1ccc(-c2cc(C(=O)O)co2)cc1 [3.1]
Hi team, can someone confirm which has the larger pEC50: P or Q ? Thanks. API: response body contains the label of the selected item. Q
(Q: 5.82, P: 4.51)

====

target: PPARγ (Homo sapiens); assay: Gal4-hybrid reporter gene assay PPARγ; conditions: HEK293T, Gal4-hybrid reporter; Inactive = tested 1–300 μM; mean ± S.E.M., n ≥ 3
Sequence (P37231 238-503 limits assumed): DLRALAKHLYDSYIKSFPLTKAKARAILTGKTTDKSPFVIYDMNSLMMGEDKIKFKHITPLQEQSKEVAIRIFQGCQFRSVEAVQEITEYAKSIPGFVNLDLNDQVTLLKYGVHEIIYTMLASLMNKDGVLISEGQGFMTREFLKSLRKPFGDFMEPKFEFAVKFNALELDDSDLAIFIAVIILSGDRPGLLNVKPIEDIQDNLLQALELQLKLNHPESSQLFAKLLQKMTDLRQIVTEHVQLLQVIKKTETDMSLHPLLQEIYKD
pEC50: −log10 of the molar value.
measurement-label: pEC50

Below, each entry is followed by its recorded pEC50 result.
CCOc1ccc(-c2cc(C(=O)O)co2)cc1    5.52
O=C(O)c1coc(-c2cccc(Cl)c2)c1    4.49
O=C(O)/C=C/C(=O)c1cccc(Cl)c1    4.47
O=C(O)/C=C/C(=O)c1ccc2ccccc2c1    4.57
O=C(O)COc1ccccc1Cc1ccccc1    4.33
CCOc1ccc(C(=O)/C=C/C(=O)O)cc1    4.59

I. O=C(O)CCCC#Cc1ccccc1
II. Cc1ccc(C(=O)/C=C/C(=O)O)cc1 [4.4, (E)-4-Oxo-4-(p-tolyl)but-2-enoic acid]
Pick one, I or II : lowest reported pEC50. Respond using the label that marks the chosen record. I
(I: 3.97, II: 4.43)

A. COc1ccc(/C=C/C(=O)O)cc1
B. C/C(=C\C(=O)O)c1ccc(C(F)(F)F)cc1
C. O=C(O)/C=C/C(=O)c1ccc(Cl)cc1
Rank by pEC50 (largest to smallest). Output spec: a listing of the labels in the requested order. C, A, B

a. O=C(O)c1ccc(-c2cccc(F)c2)o1
b. O=C(O)/C=C/C(=O)c1ccccc1 [4.1, (E)-4-Oxo-4-phenylbut-2-enoic acid]
// max by pEC50 over [ a , b ] Choose, then provide that item's label. b

====

biological target: UniProtKB P19793; assay: Gal4-hybrid reporter gene assay RXRα; settings: HEK293T, Gal4-hybrid reporter; Inactive = tested 1–300 μM; mean ± S.E.M., n ≥ 3
Sequence (P19793 227-458 limits assumed): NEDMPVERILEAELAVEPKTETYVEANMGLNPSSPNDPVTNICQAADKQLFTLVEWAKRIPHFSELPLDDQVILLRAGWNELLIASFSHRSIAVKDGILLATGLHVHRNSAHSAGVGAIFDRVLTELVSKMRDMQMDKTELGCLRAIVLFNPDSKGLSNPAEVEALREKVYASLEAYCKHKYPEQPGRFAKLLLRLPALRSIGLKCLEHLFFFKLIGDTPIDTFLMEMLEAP
measurement-label: EC50 (µM)

Cc1ccccc1C(=O)/C=C/C(=O)O [4.2, (E)-4-Oxo-4-(o-tolyl)but-2-enoic acid]    50

a. C/C(=C\C(=O)O)c1ccc(C(F)(F)F)cc1 [compound 91]
b. CCOc1ccc(C(=O)/C=C/C(=O)O)cc1 [2.7]
Higher EC50 between a and b ? Answer format: the label of the selected item. a

I. O=C(O)/C=C/C(=O)c1ccc(Cl)cc1 [4.5]
II. O=C(O)c1coc(-c2cccc(Cl)c2)c1 [3.2]
III. O=C(O)/C=C/C(=O)c1ccc2ccccc2c1 [4.8]
rank_up(items): orders items by reported EC50 in ascending numerical order. List the labels according to the requested ordering. II, III, I
(II: 14 µM, III: 26 µM, I: 46 µM)

I. Cc1ccc(C(=O)/C=C/C(=O)O)cc1 [4.4, (E)-4-Oxo-4-(p-tolyl)but-2-enoic acid]
II. O=C(O)c1ccc(-c2cccc(F)c2)o1 [compound 53]
Recorded EC50 values differ for I and II ; which one is higher? Field: selected label. Fill in the label of the entry you choose. II
(II: 54 µM, I: 35 µM)
